# Target: MeCP2-TBL1 interaction (MeCP2-SmBiT / TBL1-LgBiT) (Mus musculus)
# Construct: expressed in transfected cells; crude lysate used as a cell-free assay
# Sequence (Q9QXE7 166-527): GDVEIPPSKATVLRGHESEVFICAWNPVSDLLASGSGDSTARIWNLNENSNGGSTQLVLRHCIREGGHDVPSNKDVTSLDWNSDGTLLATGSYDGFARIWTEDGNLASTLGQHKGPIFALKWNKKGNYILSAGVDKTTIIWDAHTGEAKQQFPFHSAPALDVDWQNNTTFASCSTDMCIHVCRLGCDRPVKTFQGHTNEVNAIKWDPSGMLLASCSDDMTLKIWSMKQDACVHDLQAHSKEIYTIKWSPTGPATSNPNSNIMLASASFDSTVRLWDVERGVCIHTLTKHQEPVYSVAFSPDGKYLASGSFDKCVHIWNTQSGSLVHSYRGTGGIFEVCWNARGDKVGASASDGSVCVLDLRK
# Protocol Details: MeCP2-TBL1 NanoLuc luciferase complementation assay (cell-free, extracts of transfected HEK293 cells);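 note: each compound tested at 20 µM final concentration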
# Format: binding, human
# Run Conditions: primary screen of the Asinex library, sheet "Sargen output Asinex library", one well per compound
# Excerpt: To facilitate the discovery of inhibitors of the interaction between MeCP2 and TBL1/TBLR1, we set out to devise a simple and scalable biochemical assay for measuring the interaction between these two proteins. We initially explored the possibility of screening compound libraries using a previously established fluorescence polarization assay that depends on purified recombinant TBL1/TBLR1[26]. […]
Outcome Measure: Inhibition percent (%)
// units = %; emit number, no label

Fill: Inhibition percent (MeCP2-TBL1 interaction (MeCP2-SmBiT / TBL1-LgBiT) (Mus musculus)) for this compound "CCn1c(=O)oc2cc(NC(=O)CN3C[C@]4(NC(C)=O)CN(C)CC[C@@H]4[C@H]3c3ccccc3)ccc21"
-0.000394

Please report Inhibition percent with MeCP2-TBL1 interaction (MeCP2-SmBiT / TBL1-LgBiT) (Mus musculus) for item Cc1c[nH]c(-c2cncc(C3CCCN(C(=O)c4ccnc(Cc5cccc(F)c5)c4)C3)n2)n1 (centres unmarked) .
-2.90

Under MeCP2-TBL1 interaction (MeCP2-SmBiT / TBL1-LgBiT) (Mus musculus), report Inhibition percent for Cc1ccc(Oc2cc(C)nc(C3CCCCN3C(=O)c3ccnc(-c4cnn(C)c4)c3)n2)cc1 (centres unmarked)
0.88

Give Inhibition percent only, for "O=C(c1cc(-c2cccc(F)c2)no1)N1CCC[C@@]2(C[C@@H](Oc3ccccc3F)CO2)C1" , using MeCP2-TBL1 interaction (MeCP2-SmBiT / TBL1-LgBiT) (Mus musculus) data.
4.74

Please report Inhibition percent with MeCP2-TBL1 interaction (MeCP2-SmBiT / TBL1-LgBiT) (Mus musculus) for item "COc1cccc([C@@H]2C[C@]3(C)NC(=O)CCCC[C@@H]3N2CC(=O)Nc2ccc3c(c2)nc(C)n3C)c1" .
1.66

# return Inhibition percent for COc1ccc(F)cc1-c1cccc(CC2(C(=O)NCCN3CCCCC3C)CCOCC2)c1 (centres unmarked) , test system: MeCP2-TBL1 interaction (MeCP2-SmBiT / TBL1-LgBiT) (Mus musculus)
5.71

Report Inhibition percent from MeCP2-TBL1 interaction (MeCP2-SmBiT / TBL1-LgBiT) (Mus musculus) testing of "COc1cccc2c1OC1(CCN(C)CC1)[C@H]1CCCO[C@H]21"
-1.32

Write Inhibition percent of O=C(c1ccccc1Cn1cccn1)N1CCCC1c1cncc(Cc2cccc(F)c2)n1 (centres unmarked) ; system used: MeCP2-TBL1 interaction (MeCP2-SmBiT / TBL1-LgBiT) (Mus musculus)
0.32
